The measurements presented in this section are drawn from patent US11083725B2.

For each entry below, report its 590 nm absorbance normalized to zero hour (substrate use), 11 hr value.
Tested on: NHBE cells
Assay overview: Biolog metabolic array: substrate use by NHBE cells with or without CA09 infection
Type: cell-based, human
Test parameters: Virus (CA09-infected NHBE cells, MOI 1); 11 hr
Give bare numbers.

Example entries begin here.
Compound	Observed
O[C@H]1[C@H](O)[C@@H](O)[C@H](O)[C@@H](O)[C@H]1O [m-Inositol]	1.34
C[C@@H](O)[C@H](O)[C@H](O)[C@@H](O)C=O [D-Fucose]	0.61
CCCCCC(=O)O [Hexanoic Acid]	0.41
OC[C@@H](O)[C@@H](O[C@H]1O[C@H](CO)[C@@H](O)[C@H](O)[C@H]1O)[C@H](O)[C@@H](O)CO [Maltitol]	1.16

The reported NHBE cells 590 nm absorbance normalized to zero hour (substrate use), 11 hr of OC[C@@H](O)[C@@H](O)CO [i-Erythritol] is 0.53

====

Test system: NHBE cells
Assay overview: Biolog metabolic array: substrate use by NHBE cells with or without CA09 infection
Format: cell-based, human
Test parameters: Control (uninfected) NHBE cells, Biolog PMM2, 7 hr
Kindly apply the following: MET if Substrate use, 590 nm absorbance normalized to zero hour, 7 hr is less than 2, NOT MET in every other case.

Example cases with answers are listed next.
Molecule	Class
O=C(O)C[C@H](O)C(=O)O	MET
COC(=O)C(C)=O [Methyl Pyruvate]	MET
CC(=O)N[C@H]1[C@H]([C@H](O)[C@H](O)CO)OC(O)(C(=O)O)C[C@@H]1O (stereo partly drawn)	MET

Problem: For the molecule "O=C[C@H](O)[C@@H](O)[C@H](O)[C@H](O)C(=O)O" , is Substrate use, 590 nm absorbance normalized to zero hour, 7 hr under 2?
MET

Problem: For the molecule CC(O)C(C)O (stereo not drawn) , is Substrate use, 590 nm absorbance normalized to zero hour, 7 hr under 2?
MET

Problem: For the molecule "OC[C@@H](O)[C@@H](O[C@@H]1O[C@H](CO)[C@H](O)[C@H](O)[C@H]1O)[C@H](O)[C@@H](O)CO" , is Substrate use, 590 nm absorbance normalized to zero hour, 7 hr under 2?
MET

====

Tested on: NHBE cells
Assay overview: Biolog metabolic array: substrate use by NHBE cells with or without CA09 infection
Assay type: cell-based, human
Test parameters: Virus: CA09-infected NHBE cells, MOI 1; Biolog PMM2; 3 hr
Outcome label depends on 590 nm absorbance normalized to zero hour (substrate use), 3 hr relative to 2: at/above gives yes, below gives no.

Molecule	Assay target	Class
OC[C@H]1O[C@H](OC[C@H]2OC(O)(CO)[C@@H](O)[C@@H]2O)[C@H](O)[C@@H](O)[C@@H]1O (some centres unmarked)	NHBE cells	no
O=C(CO)[C@@H](O)[C@H](O)[C@H](O)COP(=O)(O)O [D-Fructose-6-Phosphate]	NHBE cells	no
OC[C@@H](O)[C@@H](O)[C@H](O)[C@H](O)CO	NHBE cells	no
Cc1cn([C@H]2C[C@H](O)[C@@H](CO)O2)c(=O)[nH]c1=O	NHBE cells	yes
OC[C@H]1O[C@@H](O[C@H]2[C@H](O)[C@@H](O)[C@@H](O)O[C@@H]2CO)[C@H](O)[C@@H](O)[C@H]1O	NHBE cells	no

// inclusive: 590 nm absorbance normalized to zero hour (substrate use), 3 hr at least 2? input: "CCCCCC(=O)O"
no

// inclusive: 590 nm absorbance normalized to zero hour (substrate use), 3 hr at least 2? input: "Nc1ncnc2c1ncn2[C@@H]1O[C@H](CO)[C@@H](O)[C@H]1O"
no

// inclusive: 590 nm absorbance normalized to zero hour (substrate use), 3 hr at least 2? input: COC(=O)[C@@H](C)O [Methyl D-Lactate]
yes
